Biological target: human glucagon receptor (Homo sapiens)
Construct: expressed in transfected cells; host or cells: BHK (baby hamster kidney) cells, membrane preparation
Sequence (P47871 26-477): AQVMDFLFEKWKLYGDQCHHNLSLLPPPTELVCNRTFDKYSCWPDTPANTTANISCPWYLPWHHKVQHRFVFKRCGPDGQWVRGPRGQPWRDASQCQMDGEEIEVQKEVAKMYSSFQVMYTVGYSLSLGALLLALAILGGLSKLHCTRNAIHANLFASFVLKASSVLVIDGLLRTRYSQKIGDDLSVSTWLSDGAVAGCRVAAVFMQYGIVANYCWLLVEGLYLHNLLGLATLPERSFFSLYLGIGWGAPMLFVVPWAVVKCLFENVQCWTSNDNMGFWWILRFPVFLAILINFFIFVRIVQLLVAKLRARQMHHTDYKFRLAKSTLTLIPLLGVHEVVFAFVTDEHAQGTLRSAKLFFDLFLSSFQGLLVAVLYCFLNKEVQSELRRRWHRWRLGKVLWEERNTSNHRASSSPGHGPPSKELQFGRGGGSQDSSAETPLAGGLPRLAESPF
Assay: Glucagon Binding Assay (II)
Settings: membranes of BHK cells transfected with human glucagon receptor, 125I-glucagon, SPA; read-out: Glu Bd Assay (II) IC50
MEASURED_QUANTITY: IC50 (nM)

COMPOUND	RECORDED_MEASUREMENT
O=C(NCC(O)C(=O)O)c1ccc(CN(C(=O)Nc2cc(Cl)cc(Cl)c2)c2ccc(C3=CCCCC3)cc2)cc1 (racemic) [Example 17]	22
O=C(NC[C@@H](O)C(=O)O)c1ccc(CN(C(=O)NCc2ccccc2-c2ccccc2)c2ccc(C3CCCCC3)cc2)cc1 [Example 36]	14
O=C(NCC(F)C(=O)O)c1ccc(CN(C(=O)Nc2cc(Cl)cc(Cl)c2)c2ccc(C3=CCCCC3)cc2)cc1 (racemic) [Example 23]	40
CC(C)(C)[C@H]1CC[C@H](N(Cc2ccc(C(=O)NC[C@H](O)C(=O)O)cc2)C(=O)Nc2cc(C(F)(F)F)cc(C(F)(F)F)c2)CC1 [Example 13]	228
O=C(NC[C@@H](O)C(=O)O)c1ccc(CN(C(=O)Nc2ccc(F)c(F)c2)c2ccc(C3=CCCCC3)cc2)cc1 [Example 48]	182
O=C(NC[C@@H](O)C(=O)O)c1ccc(CN(C(=O)Cc2cc(C(F)(F)F)cc(C(F)(F)F)c2)c2ccc(C3CCCCC3)cc2)cc1 [Example 66]	325
